Overview of reported EC50 pSTAT5, CD4 Naive across a group of binders:
target.under.test: T1, IL-7 receptor (IL-7Rα/γc heterodimer) on primary human T cells (human, UniProt P16871 21-459; P31785 23-369)
T1 sequence (looked up) 1: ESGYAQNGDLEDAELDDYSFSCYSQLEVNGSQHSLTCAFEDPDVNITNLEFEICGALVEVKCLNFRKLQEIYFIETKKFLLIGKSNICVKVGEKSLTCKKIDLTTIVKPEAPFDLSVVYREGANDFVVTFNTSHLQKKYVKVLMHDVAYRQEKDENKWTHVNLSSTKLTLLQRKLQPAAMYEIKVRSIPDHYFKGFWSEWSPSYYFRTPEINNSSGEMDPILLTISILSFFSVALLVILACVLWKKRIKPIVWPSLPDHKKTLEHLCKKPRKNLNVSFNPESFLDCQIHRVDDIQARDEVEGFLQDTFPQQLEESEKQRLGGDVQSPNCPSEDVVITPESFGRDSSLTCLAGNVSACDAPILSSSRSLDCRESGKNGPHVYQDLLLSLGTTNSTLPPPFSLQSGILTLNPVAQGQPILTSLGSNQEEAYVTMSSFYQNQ
T1 sequence (looked up) 2: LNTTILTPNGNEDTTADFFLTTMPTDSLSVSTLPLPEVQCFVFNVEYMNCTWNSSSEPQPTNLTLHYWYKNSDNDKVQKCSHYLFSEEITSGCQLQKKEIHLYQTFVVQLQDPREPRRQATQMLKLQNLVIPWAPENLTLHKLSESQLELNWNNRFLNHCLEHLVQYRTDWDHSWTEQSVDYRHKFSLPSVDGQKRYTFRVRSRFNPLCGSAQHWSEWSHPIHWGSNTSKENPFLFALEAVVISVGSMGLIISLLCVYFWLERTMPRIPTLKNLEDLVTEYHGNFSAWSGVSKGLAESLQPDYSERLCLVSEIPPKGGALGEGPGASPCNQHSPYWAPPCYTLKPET
assay.method.text: cell-based or functional assay
Bridges are numbered along the chain shown (N, C = ends). [ ]: non-standard residue; d: D form. glutaryl‑PEG9‑azide = glutaryl-PEG9-azide group on the N-terminal amine; hSer = N[C@@H](CCO)C(=O)O; Nle = CCCC[C@H](N)C(=O)O
Quick reminder: number only, in pM, skip the unit.

Recorded EC50 pSTAT5, CD4 Naive, per entry:
binder	value.kind	unit.of.measure	endpoint.result
CMP-113, synthetic IL-7 C2A, C92A of SEQ ID NO: 10 with glutaryl-PEG9-azide at the N-terminus (ligand, ends and bridges not checked) {glutaryl‑PEG9‑azide}-DADIEGKDGKQYESVL[Nle]VSIDQLLDS[Nle]KEIGSNCL[hSer]NEFNFFKRHICDANKEG[Nle]FLFRAARKLRQFLK[Nle]NSTGDF[hSer]LHLLKVSEGTTILLNATGQVKGRKPAALGEAQPTKSL[hSer]ENKSLKEQKKLNDLCFLKRLLQEIKTCWNKIL[Nle]GTKEH	EC50 pSTAT5, CD4 Naive	pM	40
CMP-110, synthetic IL-7 G85N of SEQ ID NO: 7 with glutaryl-PEG9-azide at the N-terminus (ligand, disulfide 34-129, 47-141, 2-92, The suffix is not explained; also called CMP-110-001) {glutaryl‑PEG9‑azide}-DCDIEGKDGKQYESVL[Nle]VSIDQLLDS[Nle]KEIGSNCL[hSer]NEFNFFKRHICDANKEG[Nle]FLFRAARKLRQFLK[Nle]NSTGDF[hSer]LHLLKVSENTTILLNCTGQVKGRKPAALGEAQPTKSL[hSer]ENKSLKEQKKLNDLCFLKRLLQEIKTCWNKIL[Nle]GTKEH-NH2	EC50 pSTAT5, CD4 Naive	pM	30
CMP-035, recombinant human native IL-7 with His-tag (ligand, also called WT IL-7 His; recombinant IL-7 (WT)) DCDIEGKDGKQYESVLMVSIDQLLDSMKEIGSNCLNNEFNFFKRHICDANKEGMFLFRAARKLRQFLKMNSTGDFDLHLLKVSEGTTILLNCTGQVKGRKPAALGEAQPTKSLEENKSLKEQKKLNDLCFLKRLLQEIKTCWNKILMGTKEHVDHHHHHH	EC50 pSTAT5, CD4 Naive	pM	1
CMP-107, synthetic IL-7 V15W of SEQ ID NO: 5 with glutaryl-PEG9-azide at the N-terminus (ligand, disulfide 34-129, 47-141, 2-92, also called synthetic IL-7 with V15W) {glutaryl‑PEG9‑azide}-DCDIEGKDGKQYESWL[Nle]VSIDQLLDS[Nle]KEIGSNCL[hSer]NEFNFFKRHICDANKEG[Nle]FLFRAARKLRQFLK[Nle]NSTGDF[hSer]LHLLKVSEGTTILLNCTGQVKGRKPAALGEAQPTKSL[hSer]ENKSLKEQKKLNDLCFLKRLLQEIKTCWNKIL[Nle]GTKEH-NH2	EC50 pSTAT5, CD4 Naive	pM	1

Which measured EC50 pSTAT5, CD4 Naive value corresponds to CMP-200, IL-7 syntein missing C2-C92 disulphide bond, N-terminus with glutaric acid and azido-PEG (ligand, disulfide 34-129, 47-141, also called CMP-200-001) {glutaryl‑PEG9‑azide}-DSDIEGKDGKQYESVL[Nle]VSIDQLLDS[Nle]KEIGSNCL[hSer]NEFNFFKRHICDANKEG[Nle]FLFRAARKLRQFLK[Nle]NSTGDF[hSer]LHLLKVSEGTTILLNSTGQVKGRKPAALGEAQPTKSL[hSer]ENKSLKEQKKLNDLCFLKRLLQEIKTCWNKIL[Nle]GTKEH-NH2 ? 20
